# experimentalTarget: Src (Homo sapiens, UniProt P12931)
# Sequence (P12931 whole entry): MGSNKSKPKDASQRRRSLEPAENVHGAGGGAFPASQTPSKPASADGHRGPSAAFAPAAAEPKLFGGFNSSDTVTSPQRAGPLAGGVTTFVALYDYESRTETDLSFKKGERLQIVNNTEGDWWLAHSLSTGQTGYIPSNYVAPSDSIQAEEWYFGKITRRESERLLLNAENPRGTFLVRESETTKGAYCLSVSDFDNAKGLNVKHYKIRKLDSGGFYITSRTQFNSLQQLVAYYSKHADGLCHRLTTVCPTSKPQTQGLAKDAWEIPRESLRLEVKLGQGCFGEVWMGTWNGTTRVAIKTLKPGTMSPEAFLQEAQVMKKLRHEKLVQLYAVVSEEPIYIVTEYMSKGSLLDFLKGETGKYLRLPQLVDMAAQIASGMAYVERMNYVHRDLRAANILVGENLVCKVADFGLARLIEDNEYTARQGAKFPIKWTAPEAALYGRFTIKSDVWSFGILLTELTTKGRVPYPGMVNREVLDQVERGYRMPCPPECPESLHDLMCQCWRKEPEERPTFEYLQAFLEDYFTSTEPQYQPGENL
# testSummary: Src kinase assay, ELISA format
# conditionSet: read-out: Src enzyme IC50; ELISA format
pIC50: −log10 of the molar value.
Measured pIC50 values are reported for all entries that follow.
valueKind: pIC50

compound | reported
CCN1CCN(CCCOc2cc3ncc(C#N)c(Nc4cc(OC)c(Cl)cc4Cl)c3cc2OC)CC1 [Example 2] | 9.11
CCCN1CCN(CCCOc2cc3ncc(C#N)c(Nc4cc(OC)c(Cl)cc4Cl)c3cc2OC)CC1 [Example 15] | 8.96

###

# experimentalTarget: UniProt P12931
# testSummary: Src kinase assay, ELISA format
valueKind: IC50 (nM)

compound | reported
CCOc1cc2c(Nc3cc(OC)c(Cl)cc3Cl)c(C#N)cnc2cc1OCCCN1CCN(C)CC1 [Example 9] | 1.2

###

# experimentalTarget: c-Abl (Homo sapiens, UniProt P00519)
# Sequence (P00519 whole entry): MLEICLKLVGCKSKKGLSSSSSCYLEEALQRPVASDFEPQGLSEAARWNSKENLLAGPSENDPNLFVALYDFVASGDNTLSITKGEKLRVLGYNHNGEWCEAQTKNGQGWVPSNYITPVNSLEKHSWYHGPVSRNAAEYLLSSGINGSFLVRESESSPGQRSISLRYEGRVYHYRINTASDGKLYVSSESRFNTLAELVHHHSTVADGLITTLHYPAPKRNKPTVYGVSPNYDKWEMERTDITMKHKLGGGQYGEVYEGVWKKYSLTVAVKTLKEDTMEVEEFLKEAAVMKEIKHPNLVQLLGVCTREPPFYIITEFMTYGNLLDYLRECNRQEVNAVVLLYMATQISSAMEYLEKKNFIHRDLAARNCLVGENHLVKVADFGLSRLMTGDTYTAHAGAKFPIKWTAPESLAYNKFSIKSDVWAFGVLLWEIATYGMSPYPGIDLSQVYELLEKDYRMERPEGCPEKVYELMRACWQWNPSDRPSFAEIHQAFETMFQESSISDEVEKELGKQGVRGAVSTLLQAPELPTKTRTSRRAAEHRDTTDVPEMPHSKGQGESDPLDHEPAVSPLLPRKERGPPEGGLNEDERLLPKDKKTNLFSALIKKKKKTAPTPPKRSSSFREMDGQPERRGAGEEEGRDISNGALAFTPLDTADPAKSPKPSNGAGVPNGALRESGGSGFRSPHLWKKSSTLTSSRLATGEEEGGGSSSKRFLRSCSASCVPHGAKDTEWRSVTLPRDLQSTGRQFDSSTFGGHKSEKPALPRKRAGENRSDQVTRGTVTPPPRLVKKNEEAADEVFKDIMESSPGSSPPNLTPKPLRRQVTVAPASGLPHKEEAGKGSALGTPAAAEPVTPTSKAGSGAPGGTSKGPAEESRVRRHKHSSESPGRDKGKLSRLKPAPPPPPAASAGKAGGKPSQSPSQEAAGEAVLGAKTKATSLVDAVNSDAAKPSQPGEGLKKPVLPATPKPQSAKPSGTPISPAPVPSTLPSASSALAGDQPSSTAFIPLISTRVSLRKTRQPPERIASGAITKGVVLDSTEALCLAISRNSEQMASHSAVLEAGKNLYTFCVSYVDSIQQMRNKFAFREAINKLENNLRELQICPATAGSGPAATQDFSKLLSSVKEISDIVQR
pIC50: −log10 of the molar value.

moleculeSmiles | pIC50
COc1cc(Nc2c(C#N)cnc3cc(OCC4CCN(C)CC4)c(OC)cc23)c(Cl)cc1Cl | 8.54
COc1cc(Nc2c(C#N)cnc3cc(OCCC4CCN(C)CC4)c(OC)cc23)c(Cl)cc1Cl | 8.54

###

moleculeSmiles | melting point
CCOc1cc2c(Nc3cc(OC)c(Cl)cc3Cl)c(C#N)cnc2cc1OCC1CCN(C)CC1 | 182 to 186 °C
COc1cc(Nc2c(C#N)cnc3cc(OCCN4CCN(C)CC4)c(OC)cc23)c(Cl)cc1Cl | 165 to 167 °C
CCN1CCN(CCOc2cc3ncc(C#N)c(Nc4cc(OC)c(Cl)cc4Cl)c3cc2OC)CC1 | 101 to 105 °C
CCOc1cc2c(Nc3cc(OC)c(Cl)cc3Cl)c(C#N)cnc2cc1OCCCC1CCN(C)CC1 | 148 to 151 °C
CCOc1cc2c(Nc3cc(OC)c(Cl)cc3Cl)c(C#N)cnc2cc1OCCCN1CCN(CC)CC1 | 127 to 130 °C
CCN1CCC(COc2cc3ncc(C#N)c(Nc4cc(OC)c(Cl)cc4Cl)c3cc2OC)CC1 | 192 to 195 °C
CCOc1cc2c(Nc3cc(OC)c(Cl)cc3Cl)c(C#N)cnc2cc1OCCN1CCN(C)CC1 | 141 to 143 °C
CCOc1cc2c(Nc3cc(OC)c(Cl)cc3Cl)c(C#N)cnc2cc1OCCC1CCN(C)CC1 | 174 to 176 °C
CCOc1cc2c(Nc3cc(OC)c(Cl)cc3Cl)c(C#N)cnc2cc1OCCCN1CCN(C)CC1 | 137 to 138 °C

###

# experimentalTarget: Src (Homo sapiens, UniProt P12931)
# testSummary: Src kinase assay, homogeneous solution-based (Lance format)
# Type: biochemical
# Set-up: purchased Upstate Biotechnologies, Lake Placid, N.Y
# conditionSet: read-out: Src enzyme IC50
pIC50: −log10 of the molar value.

moleculeSmiles | pIC50
CCOc1cc(Nc2c(C#N)cnc3cc(OCC4CCN(C)CC4)c(OC)cc23)c(Cl)cc1Cl | 6.64
